biological target: STK19 (31-254) (human, UniProt P49842 31-254); assay: EMSA; n = 2; 20 mM HEPES pH 7.4, 100 mM NaCl, 1 mM MgCl2, 1 mg/ml BSA, 2 mM DTT, 5% glycerol; 30 min on ice; native 5% PAGE in 1X TBE; details: protein: recombinant; tags: GST cleaved; GPLGS left at N-terminus; label: 5' IRDye 700 on rU30; blunt
Sequence (P49842 31-254): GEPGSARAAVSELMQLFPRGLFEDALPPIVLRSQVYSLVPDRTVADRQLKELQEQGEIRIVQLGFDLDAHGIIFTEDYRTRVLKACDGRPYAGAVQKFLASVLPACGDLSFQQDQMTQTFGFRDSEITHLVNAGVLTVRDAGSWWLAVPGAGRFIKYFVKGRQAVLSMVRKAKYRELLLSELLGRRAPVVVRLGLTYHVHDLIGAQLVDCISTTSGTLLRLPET
valueKind: Kd (µM)

binder: dsRNA 30-mer (rU-rA)30 (dsRNA) RNA 1: UUUUUUUUUUUUUUUUUUUUUUUUUUUUUU RNA 2: AAAAAAAAAAAAAAAAAAAAAAAAAAAAAA
resultNumber: 3.2
